- TARGET DESC: T1, JCV VP1 VLP (JC virus (JCV), Mad-1 strain, UniProt P03089 1-354)
- T1 construct: also called JCV VP1 VLPs; JCV VP1 (coating with reassociation buffer)
- PROCEDURE DETAILS: direct ELISA, plate coated with antigen at 5 µg/ml in reassociation buffer (VLP); EC50 by non-linear regression (GraphPad Prism)
REPORTED ENDPOINT: EC50

| BINDER | REPORTED ENDPOINT | MEASURED |
| --- | --- | --- |
| NI-307.43E8 (antibody, V domains shown) VH: EVQLVESGGDVVQPGRSLRLSCAASGFAFSIYAMNWVRQAPGKGLEWVALISTSGTEHYADSVKGRFTISRDNSKNTLFLQINSLRVEDTAVYYCARDLDSTGYYENNYWGQGTLVTVSS VL: DVVMTQSPLSSPVSLGQPASISCRSSHSLVHSNGDTYLSWLQQRPGQPPRLLIYKISNRFSGVPDRFSGSGAGTDFTLKISRVEAEDVGVYFCMQATSFPRTFGQGTKVEIK | EC50 | 0.64 nM |
| NI-307.50H4 (antibody, V domains shown) VH: QVQLQESGPGLVKPSGTLSLTCAVSGDSISSSNWWSWVRQPPGKRLEWIGEIYHSGGTKYNPSLKSRVTISVDKSKNHFSLKLRSVTAADTAVYYCARNRWFDNNRGGYYYYGMDVWGQGTMVTVSS VL: DIQMTQSPSSLSASVGDRVTITCRAGQGISTYLNWYQQKPGKAPNLLIYATSDLQSGVPSRFSGSGSGTDFTLTISSLQPEDFATYYCQQSYNNPYTFGQGTKVEIK | EC50 | 0.055 nM |
| NI-307.45E10 (antibody, V domains shown) VH: EVQLVESGGGLVQPGGSLRLSCAASGFSFRFYAMNWVRQAPGKGLEYVSGISGGGGTTYYADSVKGRFTISRDNSKNTLYLQMKSLRAEDTAIYYCAKDQSYCSGAGCHPYYLDYWGQGTLVTVSS VL: SYVLTQPPSVSVAPGQTARITCGGNNIGSKSVHWYQQKPGQAPVVVVYDDSGRPSGMPERFSGSNSGNTATLTISRVEAGDEADYYCQVWDSSSDHLYVFGTGTKVTVL | EC50 | 0.024 nM |
| NI-307.105C7 (antibody, V domains shown) VH: EVQLVESGGGLVQPGGSLRLSCAASGFSFGFYAMNWVRQAPGKGLEYVSGVSGGGGSTYYADSVKGRFTISRDNSKNTLYLQMKSLRAEDTAIYYCAKDQSYCSGGSCHPYYLDYWGQGTLVTVSS VL: SYVLTQPPSVSVAPGQTARITCGGNNIGSKSVHWYQQKPGQAPVVVVYDDSGRPSGIPERFSGSNSGNTATLTISRVEAGDEADYYCQVWDSSSDHPYVFGTGTKVTVL | EC50 | 0.04 nM |
| NI-307.72F10 (antibody, V domains shown) VH: EVQLVESGGGVVQPGRSLRLSCATSGFTFDDYAMHWVRQAPGKGLEWVSGLTWSSSGVGYADSVKGRFTISRDNAKNSLYLQMNSLRAEDTALYYCAKGSGEWLRLGQDYWGQGTLVTVSS VL: QSVLTQPPSVSGTPGQRVTISCTGSSSNIGAGYDVHWYQQLPGTAPKLLIYDNSNRPSGVPDRFSGSKSGTSASLAITGLQAEDEAHYYCQSFDSSLSGSVFGGGTKLAVL | EC50 | 0.031 nM |
| NI-307.72F7 (antibody, V domains shown) VH: EVQLVESGGGLVQPGGSLRLSCAASGFTFSSYEMNWVRQAPGKGLEWISYISSRGSTIHYADSVKGRFTISRDDAKNSLYLQMNSLRAEDTAIYYCARDRYDFWSGCIKGCYYGMDVWGQGSTVTVSS VL: EIVLTQSPGTLSLSPGQRATLSCRASQSISSSYLAWYQQRRGQAPRLLIYGASSRATGIPDRFSGSGSGTDFTLTISRLEPEDFAVYYCQHYGTTLTFGQGTKVDIK | EC50 | 0.019 nM |
